- target_under_test: orexin-1 receptor (OX1R) (UniProt O43613)
result_type: Ki

Cc1ccc(-n2nccn2)c(C(=O)N2CCC[C@@H](COc3cccc(Br)n3)[C@@H]2C)c1 (stereo in doubt) [A-9]	2.7 nM

Kindly review the next compound as well.
Q. Consider the compound Cc1ccc(-n2nccn2)c(C(=O)N2CCC[C@@H](COc3ccc(Br)cn3)[C@@H]2C)c1 (stereo in doubt) [A-7] and give its measured Ki.
A. 1.1 nM
